tested on: A2058; assay: Cytotoxicity against human A2058 cells after 48 hrs by […]; type: functional, cell-based; conditions: A2058, 48 h
The following compounds are listed with their measured IC50 values.
// note: answer is a bare numeric in µM

Looking for the measured IC50 of `CNC(=O)c1cc(Oc2ccc(NC(=O)Nc3ccc(Cl)c(C(F)(F)F)c3)cc2)ccn1` , can you help? 3.8

# input compound: `COc1c(CC=C(C)C)c(O)c([C@H](CC(C)C)c2c(O)c(CC=C(C)C)c(O)c(C(C)=O)c2O)c(O)c1C(C)=O` ; wanted: its IC50 0.38

Look up IC50: C=C(C)C(O)Cc1c(O)c(C(C)=O)c(O)c(C(CC(C)C)c2c(O)c(CC=C(C)C)c(OC)c(C(C)=O)c2O)c1O (centres undefined) 2.8

// lookup IC50 for COc1c(CC=C(C)C)c(O)c(C(CC(C)C)c2c(O)c(C(C)=O)c(O)c3c2OC(C(C)(C)O)C3)c(O)c1C(C)=O (centres undefined) 4.2

---

test system: DU-145; test: Cytotoxicity against human DU145 cells after 48 hrs by […]; assay type: functional, cell-based; details: DU-145, 48 h
recorded metric: pIC50
Reminder that pIC50 means the negative base-10 logarithm of the concentration expressed in mol/L.

Some entries whose results are on file:
compound: CNC(=O)c1cc(Oc2ccc(NC(=O)Nc3ccc(Cl)c(C(F)(F)F)c3)cc2)ccn1
readout number: 5.29
//
compound: C=C(C)C(O)Cc1c(O)c(C(C)=O)c(O)c(C(CC(C)C)c2c(O)c(CC=C(C)C)c(OC)c(C(C)=O)c2O)c1O (centres undefined)
readout number: 5.57

Could you now consider this next compound?
May I ask what pIC50 has been recorded for `COc1c(CC=C(C)C)c(O)c([C@H](CC(C)C)c2c(O)c(CC=C(C)C)c(O)c(C(C)=O)c2O)c(O)c1C(C)=O` ? 6.03

---

system: NHDF; assay: Cytotoxicity against human NHDF cells after 48 hrs by […]; format: cell-based; conditions: Homo sapiens, NHDF
recorded metric: IC50

compound: C=C(C)C(O)Cc1c(O)c(C(C)=O)c(O)c(C(CC(C)C)c2c(O)c(CC=C(C)C)c(OC)c(C(C)=O)c2O)c1O (stereo not drawn) [ACROVESTENOL]
result: > 5 µM

compound: COc1c(CC=C(C)C)c(O)c([C@H](CC(C)C)c2c(O)c(CC=C(C)C)c(O)c(C(C)=O)c2O)c(O)c1C(C)=O [ACROVESTONE]
result: > 5 µM

Attention now shifts to the item below.
So what does the record say about IC50 for COc1c(CC=C(C)C)c(O)c(C(CC(C)C)c2c(O)c(C(C)=O)c(O)c3c2OC(C(C)(C)O)C3)c(O)c1C(C)=O (stereo not drawn) [ACROFOLIONE A] ? > 5 µM
